Target: human CYP11B2 (Homo sapiens, UniProt P19099)
Sequence (P19099 25-503): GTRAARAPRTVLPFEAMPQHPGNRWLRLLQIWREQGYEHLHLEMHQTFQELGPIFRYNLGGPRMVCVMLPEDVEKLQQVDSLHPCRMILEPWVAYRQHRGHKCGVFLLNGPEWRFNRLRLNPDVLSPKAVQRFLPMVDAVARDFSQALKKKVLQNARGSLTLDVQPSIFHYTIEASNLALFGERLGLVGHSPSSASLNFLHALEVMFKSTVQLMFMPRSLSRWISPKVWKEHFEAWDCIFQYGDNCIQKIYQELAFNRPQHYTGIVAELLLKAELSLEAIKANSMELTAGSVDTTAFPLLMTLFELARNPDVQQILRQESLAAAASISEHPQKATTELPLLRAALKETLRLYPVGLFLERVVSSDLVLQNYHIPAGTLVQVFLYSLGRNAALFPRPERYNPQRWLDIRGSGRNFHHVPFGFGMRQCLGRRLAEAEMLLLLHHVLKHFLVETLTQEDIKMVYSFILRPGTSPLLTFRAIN
Assay: G-402 cellular enzyme assay, human CYP11B2 (aldosterone release, HTRF)
Settings: G-402 cells, 1 μM Deoxycorticosterone
Field 'label' (enum: TRUE / FALSE). Set to TRUE when EC50 is strictly under 50 nM; else FALSE.

# SMILES_CODE, CAT
measured = [
    ("CCS(=O)(=O)NCc1cncc(N2C(=O)c3ccc(Cl)cc3C2(C)C)c1", "FALSE"),
    ("NCc1cncc(N2CCc3cc(Cl)ccc3C2=O)c1", "FALSE"),
    ("CCC(=O)N1CC(Oc2cncc(N3C(=O)c4ccc(Cl)cc4C3(C)C)c2)C1", "TRUE"),
    ("CC(C)Oc1cncc(N2C(=O)c3ccc(Cl)cc3C2(C)C)c1", "TRUE"),
    ("O=C1c2ccc(Cl)cc2CCN1c1cncc(Cn2ccc3cccc(F)c32)c1", "FALSE"),
    ("COCc1ccncc1N1CCc2cc(Cl)ccc2C1=O", "FALSE"),
    ("O=C1c2ccc(Cl)cc2CCN1c1cncc(Cc2ccc(N3CCOCC3)nc2)c1", "TRUE"),
    ("O=C1c2ccc(Cl)cc2CCN1c1cncc(CN2CC[C@H](O)C2)c1", "TRUE"),
]

Input: A record lists CCc1nccn1Cc1cncc(N2CCc3cc(Cl)ccc3C2=O)c1 . Is its EC50 below 50 nM?
Output: FALSE

###

Molecular target: UniProt P15538
Sequence (P15538 25-503): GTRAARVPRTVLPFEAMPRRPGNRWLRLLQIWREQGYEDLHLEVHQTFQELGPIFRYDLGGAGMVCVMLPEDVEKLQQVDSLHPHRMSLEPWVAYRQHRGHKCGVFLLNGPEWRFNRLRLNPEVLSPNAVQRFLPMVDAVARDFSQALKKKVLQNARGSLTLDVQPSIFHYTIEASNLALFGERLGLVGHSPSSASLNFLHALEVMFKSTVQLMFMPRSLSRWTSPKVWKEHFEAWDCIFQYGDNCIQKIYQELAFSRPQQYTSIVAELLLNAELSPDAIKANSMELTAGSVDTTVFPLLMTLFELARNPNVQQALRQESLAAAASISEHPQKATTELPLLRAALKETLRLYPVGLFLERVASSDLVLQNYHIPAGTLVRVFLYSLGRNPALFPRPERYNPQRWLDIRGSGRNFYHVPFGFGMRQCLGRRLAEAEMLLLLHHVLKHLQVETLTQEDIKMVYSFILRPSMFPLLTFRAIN
Assay: G-402 cellular enzyme assay, human CYP11B1 (cortisol release, HTRF)
Details: G-402 cells, 1 μM Deoxycortisol
From the text: Herein we identified the use of the G-402 cell line as a host cell to ectopically express (transiently or stably) enzymes of the CYP11 family. […] Importantly the identified cell line G-402 expresses co-factors (adrenodoxin and adrenodoxin reductase) important for the activity of the CYP11 family and no relevant enzyme activity of the CYP11 family (in comparison to H295R cells) was detected in these cells. […]
ASSAY_ENDPOINT: pEC50
Keep it numeric: pEC50 is minus log10 of the concentration in mol/L.

Answered examples (2):
# MOLECULE, RESULT_VALUE
records = [
    ("CC1(C)c2cc(Cl)ccc2C(=O)N1c1cncc(CNS(C)(=O)=O)c1", 5.84),
    ("Cn1cncc1C(=O)NCc1cncc(N2C(=O)c3ccc(Cl)cc3C2(C)C)c1", 6.59),
]

Input: Would you mind telling me what pEC50 value was observed for CCC1c2cc(Cl)ccc2C(=O)N1c1cncc(CNS(=O)(=O)CC)c1 (single isomer, unassigned) ?
Output: 5.26

Input: // same read-out, input: COc1cncc(N2CC(C)c3cc(Cl)ccc3C2=O)c1 (stereo not drawn)
Output: 6.11

Input: // same read-out, input: O=C1CCCN1c1cncc(N2CCc3cc(Cl)ccc3C2=O)c1
Output: 5.09

Input: // same read-out, input: C[C@H]1Cc2cc(Cl)ccc2C(=O)N1c1cccnc1
Output: 4.94

Input: // same read-out, input: Cn1ccnc1-c1cncc(N2CCc3cc(Cl)ccc3C2=O)c1
Output: 5.33

Input: // same read-out, input: CCS(=O)(=O)N1CCCC(c2cncc(N3C(=O)c4ccc(Cl)cc4C3(C)C)n2)C1 (stereo not drawn)
Output: 5.78

Input: // same read-out, input: Cn1nccc1-c1cncc(N2C(=O)c3ccc(Cl)cc3C2(C)C)c1
Output: 7.21

Input: // same read-out, input: COc1ccc2c(n1)C(C)(C)N(c1cncc(CNc3cc[nH]n3)c1)C2=O
Output: 5.50

Input: // same read-out, input: CCc1nccn1Cc1cncc(N2CCc3cc(Cl)ccc3C2=O)c1
Output: 5.07

Input: // same read-out, input: O=C1c2ccc(Cl)cc2CCN1c1cncc(Cc2cc(F)ccc2F)c1
Output: 7.09

Input: // same read-out, input: CCC(=O)NC1CCCc2c1cncc2N1C(=O)c2ccc(Cl)cc2C1(C)C (racemic)
Output: 5.57

Input: // same read-out, input: CCC(=O)NCc1cncc(N2C(=O)c3ccc(Cl)cc3C23CC3)c1
Output: 5.28

Input: // same read-out, input: CCC(=O)NC1CCCc2c1cncc2N1CCc2cc(Cl)ccc2C1=O (single isomer, unassigned) [Example 328]
Output: 4.73

Input: // same read-out, input: O=C1CCCCN1Cc1cncc(N2CCc3cc(Cl)ccc3C2=O)c1
Output: 4.91

Input: // same read-out, input: O=C1c2ccc(Cl)cc2CCN1c1cncc(Cn2ccc3cccc(F)c32)c1
Output: 6.17

Input: // same read-out, input: O=C1c2ccc(Cl)cc2CCN1c1cncc2cc[nH]c12
Output: 4.78

src = patent US9133158B2
